Numbers sourced from the RepoRT retention time repository.

- experimentSummary: Agilent ZORBAX 300 SB-C18, 150 × 1 mm, 3.5 µm; A: water + 0.01% heptafluorobutyric acid; B: acetonitrile + 0.01% heptafluorobutyric acid; gradient (min/%B) 0/0 100/90
- conditionSet: stereoisomer not certain
Reported LC retention time is given for each of the following compounds.
Lab book: enter the figure in min, no units written.

compound: CCn1c(C)cc(C=O)c1C
LC retention time (min): 9.93
--
compound: Nc1ccn(CC(O)CO)c(=O)n1 (configuration not stated)
LC retention time (min): 4.4

Any idea what LC retention time was measured for `NCc1cc2ccccc2o1` ?
8.09

Any idea what LC retention time was measured for `Nc1ccc(Cc2ccncc2)cc1` ?
8.71

Any idea what LC retention time was measured for `c1ccc(-c2nc3ccccc3[nH]2)cc1` ?
9.01

Any idea what LC retention time was measured for `CN(C)CCC=C1c2ccccc2CCc2ccccc21` ?
11.8

Any idea what LC retention time was measured for `Cc1cc2ncn(Cc3c(C)c(C)cc(C)c3C)c2cc1C` ?
13

Any idea what LC retention time was measured for C#CC(C)(CC)NC(=O)Cc1ccccc1 (configuration not stated) ?
12.2

Any idea what LC retention time was measured for `Cn1cnc2c1c(=O)[nH]c(=O)n2C` ?
6.5

Any idea what LC retention time was measured for `Nc1ccc2c(c1)C(=O)N(c1ccc3ccccc3c1)C2=O` ?
13.6

Any idea what LC retention time was measured for `CCCCCCCCCCCCNC` ?
13.5

Any idea what LC retention time was measured for `O=C(O)c1cc(=O)n(-c2ccc(S(=O)(=O)O)cc2)[nH]1` ?
2.18
